- Tested on: TK-10
- assayExplanation: NCI tumour cell line growth inhibition, 48 h
Calls of active or inactive are those of the source. Rule as the data show it: active = GI50 up to about 1.1 µM and inactive = higher.
# reported GI50; entries follow
readoutName: GI50

compound: COC(=O)[C@H](Cc1c[nH]c2ccccc12)NP(=O)(O)OC[C@H]1O[C@@H](n2cc(C)c(=O)[nH]c2=O)C[C@@H]1N=[N+]=[N-]
readoutValue: > 100 µM (inactive)

compound: CCOC(=O)C(NC(=O)c1cccc(Cl)c1)(Nc1cccc(C)c1)C(F)(F)F (stereo not given)
readoutValue: 29.8 µM (inactive)

compound: O=c1oc2cc(O)ccc2c2[nH]c3cc(O)ccc3c12
readoutValue: 36.3 µM (inactive)

compound: Cn1c(S)nnc1-c1csc(-c2ccc(Cl)cc2)n1
readoutValue: 20.4 µM (inactive)

compound: O=[N+]([O-])C(C=C(n1nnc2ccccc21)n1nnc2ccccc21)=C(n1nnc2ccccc21)n1nnc2ccccc21
readoutValue: > 100 µM (inactive)

----------
# reported GI50; entries follow
- System: NCI-H522
- assayExplanation: NCI tumour cell line growth inhibition, 48 h
Active and inactive are the calls of the source. No stated cut-off is given here; in the data, active = GI50 up to about 1.1 µM and inactive = higher.

compound: FC(F)(F)c1cccc2ns[s+]c12
GI50: > 100 µM (inactive)
--
compound: CCCOC(=O)CNC(=O)OC(C)(C)C
GI50: > 100 µM (inactive)
--
compound: Cc1cc2ncn(CC(=O)O)c2cc1C
GI50: > 100 µM (inactive)
--
compound: Cc1ccc2[nH]/c(=N/S(=O)(=O)c3cc(C)c(Cl)cc3S)[nH]c2c1
GI50: > 100 µM (inactive)
--
compound: c1ccc(-c2cc(-c3ccccc3)nc(-c3ccncc3)c2)cc1
GI50: > 100 µM (inactive)
--
compound: O=C1OC(c2ccccc2)=N/C1=C\c1cccnc1
GI50: > 100 µM (inactive)
--
compound: Oc1ccc2ccccc2c1/N=N/c1ccc(/N=N/c2ccccc2)cc1
GI50: 86.3 µM (inactive)
--
compound: C[C@@H]1S[C@H](c2ccccc2F)N2Cc3ccccc3N=C12
GI50: 19.2 µM (inactive)
--
compound: O=C(CSc1nc2ccc(I)cc2c(=O)n1Cc1ccccc1)Nc1ccc(Br)cc1
GI50: 46.7 µM (inactive)
--
compound: C=C1C(=O)O[C@H]2C/C(C)=C/CC[C@@]3(C)O[C@](C)(CC[C@@H]3I)[C@@H](I)C[C@@H]12
GI50: 3.05 µM (inactive)
--
compound: COc1ccc(-c2c(C3=NCCCN3)nnn2-c2ccccc2)cc1
GI50: > 100 µM (inactive)
--
compound: CCN1C(=O)/C(=C\Nc2ccccc2)S/C1=N/Nc1ncc(CC(=O)Nc2ccccc2C)s1
GI50: 63.8 µM (inactive)
--
compound: COc1cc(OC)c2c(=O)cc(-c3ccc(OC)c(OC)c3OC)oc2c1
GI50: 38.9 µM (inactive)
--
compound: COc1cc(/N=N/c2cccc(S(N)(=O)=O)c2)c2ccccc2c1N
GI50: 12.1 µM (inactive)
--
compound: C=C(Cl)[C@](Cl)(CBr)CC[C@@H](Br)C(C)(C)Cl
GI50: 15.5 µM (inactive)
--
compound: COc1ccc(O)c(/C(C)=N/NC(=S)N(C)C)c1
GI50: 1.33 µM (inactive)
--
compound: N#CC(CC(=O)O)=C(c1ccccc1)c1ccccc1
GI50: > 100 µM (inactive)
--
compound: O=C1C=CC2OC(c3ccccc3)C(O)C2O1 (stereo not drawn)
GI50: 1.35 µM (inactive)
--
compound: CC(C)(C)c1cc(CCCCCCCC2(CCCCCCCc3cc(C(C)(C)C)cc(C(C)(C)C)c3)OC(COCCOCCCCCC#N)C(COCCOCCCCCC#N)O2)cc(C(C)(C)C)c1 (stereo not drawn)
GI50: > 100 µM (inactive)
--
compound: CCOC(=O)CSc1nc(-c2ccc(OC)cc2)c(C#N)c(=O)[nH]1
GI50: > 100 µM (inactive)
--
compound: COc1cc(/C=C(\OC(C)=O)c2ccc3c(c2)OCO3)cc(OC)c1OC
GI50: 13.5 µM (inactive)
--
compound: C/C=C1\C=C(OC)CN(CCc2c[nH]c3ccccc23)C1
GI50: 46 µM (inactive)
--
compound: CCOC(CN=C=S)OCC
GI50: > 10 µM (inactive)

----------
- Test system: MDA-MB-435
- assayExplanation: NCI tumour cell line growth inhibition, 48 h
Calls of active or inactive are those of the source. Cut-off read from the data, not from the text of the source: active = GI50 up to about 1.1 µM and inactive = higher.
# reported GI50; entries follow
readoutName: GI50

molecule: Cc1ccc(S(=O)(=O)N2CCNCCN(S(=O)(=O)c3ccc(C)cc3)CCN(S(=O)(=O)c3ccc(C)cc3)CC2)cc1
readoutName: GI50
readoutValue: > 100 µM (inactive)
//
molecule: CCC(=O)N(c1ccccc1)C(C)CN1CCC(O)(c2cccc(C(F)(F)F)c2)CC1 (stereo not given)
readoutName: GI50
readoutValue: 20.2 µM (inactive)
//
molecule: COc1ccc(O)c(/C(C)=N/NC(=S)N(C)C)c1
readoutName: GI50
readoutValue: 57.7 µM (inactive)
//
molecule: Cc1c2c(OCC3CCCCO3)nn(C)c(=O)c2c(C)n1-c1ccccc1 (stereo not given)
readoutName: GI50
readoutValue: 18.3 µM (inactive)
//
molecule: Nn1c(-c2ccccc2)nn(C(=O)c2ccccc2)c1=O
readoutName: GI50
readoutValue: > 100 µM (inactive)

----------
- Tested on: COLO 205
- assayExplanation: NCI tumour cell line growth inhibition, 48 h
Calls of active or inactive are those of the source. Rule as the data show it: active = GI50 up to about 1.1 µM and inactive = higher.
readoutName: GI50

lineNotation: C(=NCCN1CCOCC1)=NC1CCCCC1
readoutName: GI50
readoutValue: > 100 µM (inactive)

lineNotation: CCOC(=O)c1cc2c(nc1N)-c1ncccc1CC2
readoutName: GI50
readoutValue: 31.5 µM (inactive)

lineNotation: CS(=O)(=O)c1nc(-c2cc3c(c(S(C)(=O)=O)n2)CCC3)cc2c1CCCC2
readoutName: GI50
readoutValue: > 100 µM (inactive)

lineNotation: C/N=c1\sc2c(n1C)C(=O)c1ccccc1C2=O
readoutName: GI50
readoutValue: 5.3 µM (inactive)

lineNotation: Cc1c(C)c2ccc(O)cc2[nH]c1=O
readoutName: GI50
readoutValue: > 100 µM (inactive)

lineNotation: Cc1ccc(C(=O)N2CCCCC2)cc1/N=N/N(C)C
readoutName: GI50
readoutValue: > 100 µM (inactive)

----------
- System: XF498
- assayExplanation: NCI tumour cell line growth inhibition, 48 h
Activity calls are given as the source filed them. Rule as the data show it: active = GI50 up to about 1.1 µM and inactive = higher.
# reported GI50; entries follow

compound: CCN(CC)C(=O)C(C)n1cc(C)c(=O)[nH]c1=O (configuration not stated)
targetDesc: XF498
GI50: > 100 µM (inactive)
--
compound: CCOC(=O)C1C(=O)CC(=O)C2CCCCC21 (configuration not stated)
targetDesc: XF498
GI50: > 100 µM (inactive)
--
compound: Oc1ccc(Cn2c(-c3ccc(O)cc3)nc3ccccc32)cc1
targetDesc: XF498
GI50: > 100 µM (inactive)
--
compound: COC(=O)N/N=c1\cc(C(=O)Nc2ccc(C)c(C)c2)oc2cc(O)ccc12
targetDesc: XF498
GI50: > 100 µM (inactive)
--
compound: CCOc1ccc(OP2(=O)NC(=O)C=C(C)N2)cc1 (configuration not stated)
targetDesc: XF498
GI50: > 100 µM (inactive)
--
compound: C[Si](C)(C)/C=C/CN1C(=O)CCC1O (configuration not stated)
targetDesc: XF498
GI50: > 100 µM (inactive)
--
compound: O=C1C(Cl)=C(Cl)C(=O)N1c1ccccc1Cl
targetDesc: XF498
GI50: > 100 µM (inactive)
--
compound: OC[C@H]1O[C@@H](n2cnc3c(S)ncnc32)[C@H](O)[C@@H]1O
targetDesc: XF498
GI50: > 1260 µM (inactive)
--
compound: CC(=O)OC1C=C(C=O)C(O)(C=O)C2(C)CCCC(C)(C)C12 (configuration not stated)
targetDesc: XF498
GI50: 1.49 µM (inactive)
--
compound: OCc1ccc2[n+](c1)CCC1c3ccccc3NC21 (configuration not stated)
targetDesc: XF498
GI50: > 300 µM (inactive)
--
compound: C=CCNC(=S)OCCCCCCCCCC
targetDesc: XF498
GI50: 16 µM (inactive)
--
compound: CC(=O)O/N=C(Cl)/C(Cl)=N/OC(C)=O
targetDesc: XF498
GI50: > 100 µM (inactive)

----------
- Tested on: A549
- assayExplanation: NCI tumour cell line growth inhibition, 48 h
Activity calls are given as the source filed them. Rule as the data show it: active = GI50 up to about 1.1 µM and inactive = higher.
Outcomes: true (1) = active, false (0) = inactive

molecule: Cc1ccc2[nH]/c(=N/S(=O)(=O)c3cc(C)c(Cl)cc3S)[nH]c2c1
label: false (0)

molecule: CCN(CCCl)CCNc1c2ccccc2nc2ccc(OC)cc12
label: true (1)

molecule: N#CCCN(CCC#N)c1ccc(/C=C2\N=C(c3ccccc3)N(c3ccccc3)C2=O)cc1
label: false (0)

molecule: O=C(O)CCC(N/N=N/c1ccc(-c2nc3ccccc3[nH]2)cc1)C(=O)O (stereo unspecified)
label: false (0)

molecule: CCn1c(SCC(=O)NNC(=S)NC)nc2ccccc2c1=O
label: false (0)

molecule: CCc1cccc(C(C)CC)c1NC(=O)CC1C(=O)Nc2ccccc2S1(=O)=O (stereo unspecified)
label: false (0)
